target: T1, HEK293-derived soluble HCV E2 glycoprotein (sE2), genotype 1a H77c, residues 384 to 661, monomeric (hepatitis C virus genotype 1a, strain …, UniProt P27958 384-661, N-glycans at positions 417, 423, 430, 448, 476, 532, 540, 556, 576, 623 and 645; mostly complex- and high-mannose-type glycans); test: BLI; Octet RED96; His6-tagged sE2 (5 ug/ml, 600 s) loaded on Ni2+-NTA biosensors and stabilised with EDC/NHS, quenched with 1 M ethanolamine pH 8.0; association 300 s, dissociation 300 s; 2-fold dilution series of CD81 or HMAb (IgG format); steady-state analysis by the legend, global fit by the methods; values may reflect bivalent IgG binding; settings: both partners purified
T1 construct: HCV envelope glycoprotein E2 lacking the C-terminal transmembrane anchor, amino acids 384 to 661 of the strain 1a HCV H77c polyprotein; also called HEK293-derived sE2; HEK293 sE2; source: FreeStyle 293-F (HEK293-F) cells, transfected, secreted; purified from culture supernatant (HisTrap Ni2+-NTA, Superdex 200; monomer peak); not shown: His6, C-terminal, kept
T1 sequence (P27958 384-661): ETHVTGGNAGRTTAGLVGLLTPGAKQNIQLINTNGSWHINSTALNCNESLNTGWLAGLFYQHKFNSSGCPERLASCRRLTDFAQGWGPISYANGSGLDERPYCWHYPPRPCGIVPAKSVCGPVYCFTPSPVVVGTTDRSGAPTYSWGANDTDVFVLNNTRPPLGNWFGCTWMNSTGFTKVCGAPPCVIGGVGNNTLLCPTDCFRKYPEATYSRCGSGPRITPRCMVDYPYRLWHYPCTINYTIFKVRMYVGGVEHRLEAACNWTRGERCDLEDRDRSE
outcome_measure: Kd
Answer as a quantity: numeral, then unit.

// query GET /values?readout=Kd&item= Human CD81 large extracellular loop (CD81-LEL; CD81 residues 113 to 201) (domain or fragment, UniProt P60033 113-201, looked up, human CD81 large extracellular loop, residues 113 to 201; Cloned into the vector pHLsec (Addgene plasmid #99845 is the vector); The C-terminal His6 tag was stripped with carboxypeptidase A-agarose before biolayer interferometry; also called recombinant CD81; source: FreeStyle HEK293-F cells, transfected, secreted; purified from culture supernatant (HiTrap chelating HP Ni2+-NTA, Superdex 75); not …) FVNKDQIAKDVKQFYDQALQQAVVDDDANNAKAVVKTFHETLDCCGSSTLTALTTSVLKNNLCPSGSNIISNLFKEDCHQKIDDLFSGK
// result 510 nM
